Cited source for all entries: paper PMC10572602

- assay.target: T1, STIL CCD peptide with a different fluorophore (fluorescence polarization) (a fluorophore other than the coumarin, not named, position not stated; C-terminal amide)
- T1 construct: STIL coiled-coil domain, residues 718-749; also called same STIL CCD peptide and different fluorophore; source: synthetic peptide
- T1 peptide: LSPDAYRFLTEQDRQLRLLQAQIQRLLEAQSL
- measurement.notes: fluorescence polarisation; same STIL CCD peptide with a different fluorophore; Hill fit; dimer to monomers
- condition: both partners purified
No end group written: not given here.
attribute.measured: Kd (µM)
Expressed in µM, but write only the number.

Kd for LSPDAYRFLTEQDRQLRLLQAQIQRLLEAQSL-NH2 (STIL (SCL/TAL1 Interrupting Locus) coiled-coil domain, residues 718-749; 32-residue peptide, unlabelled; also called WT STIL CCD peptide; WT CCD; source: synthetic peptide (Fmoc-SPPS on rink amide, RP-HPLC purified)) [STIL CCD_(718–749) WT] ?
8.5
